Readout Kind: melting point

>>> print(df.to_string())
                                   compound   readout_kind         result
0  CC(C)c1ccc(Sc2c(/C=C/[C@@H]3C[C@@H](O)CC(=O)O3)cnc3ccccc23)cc1 [Compound A4]  melting point  147 to 148 °C
1  CC(C)c1ccc(Sc2c(/C=C/[C@@H]3C[C@@H](O)CC(=O)O3)cnc3cc(Cl)c(F)cc23)cc1 [Compound A12]  melting point  175 to 177 °C
2  COc1cccc(Sc2cc3ncc(/C=C/[C@@H]4C[C@@H](O)CC(=O)O4)c(Sc4cccc(OC)c4)c3cc2Sc2cccc(OC)c2)c1 [Compound A31]  melting point    57 to 59 °C
3  O=C1C[C@H](O)C[C@@H](/C=C/c2cnc3ccccc3c2Sc2ccc(F)cc2)O1 [Compound A2]  melting point  130 to 132 °C

Now, please, on to the next compound.
GET /values?readout=melting point&item= CC(C)c1ccc(Sc2cc3ncc(/C=C/[C@@H]4C[C@@H](O)CC(=O)O4)c(Sc4ccc(C(C)C)cc4)c3cc2Sc2ccc(C(C)C)cc2)cc1 [Compound A32] 182 to 184 °C
